I'd appreciate it if you could supply IC50 values for the items below.
Target: hNav1.7 (Homo sapiens, UniProt Q15858)
Sequence (Q15858 whole entry): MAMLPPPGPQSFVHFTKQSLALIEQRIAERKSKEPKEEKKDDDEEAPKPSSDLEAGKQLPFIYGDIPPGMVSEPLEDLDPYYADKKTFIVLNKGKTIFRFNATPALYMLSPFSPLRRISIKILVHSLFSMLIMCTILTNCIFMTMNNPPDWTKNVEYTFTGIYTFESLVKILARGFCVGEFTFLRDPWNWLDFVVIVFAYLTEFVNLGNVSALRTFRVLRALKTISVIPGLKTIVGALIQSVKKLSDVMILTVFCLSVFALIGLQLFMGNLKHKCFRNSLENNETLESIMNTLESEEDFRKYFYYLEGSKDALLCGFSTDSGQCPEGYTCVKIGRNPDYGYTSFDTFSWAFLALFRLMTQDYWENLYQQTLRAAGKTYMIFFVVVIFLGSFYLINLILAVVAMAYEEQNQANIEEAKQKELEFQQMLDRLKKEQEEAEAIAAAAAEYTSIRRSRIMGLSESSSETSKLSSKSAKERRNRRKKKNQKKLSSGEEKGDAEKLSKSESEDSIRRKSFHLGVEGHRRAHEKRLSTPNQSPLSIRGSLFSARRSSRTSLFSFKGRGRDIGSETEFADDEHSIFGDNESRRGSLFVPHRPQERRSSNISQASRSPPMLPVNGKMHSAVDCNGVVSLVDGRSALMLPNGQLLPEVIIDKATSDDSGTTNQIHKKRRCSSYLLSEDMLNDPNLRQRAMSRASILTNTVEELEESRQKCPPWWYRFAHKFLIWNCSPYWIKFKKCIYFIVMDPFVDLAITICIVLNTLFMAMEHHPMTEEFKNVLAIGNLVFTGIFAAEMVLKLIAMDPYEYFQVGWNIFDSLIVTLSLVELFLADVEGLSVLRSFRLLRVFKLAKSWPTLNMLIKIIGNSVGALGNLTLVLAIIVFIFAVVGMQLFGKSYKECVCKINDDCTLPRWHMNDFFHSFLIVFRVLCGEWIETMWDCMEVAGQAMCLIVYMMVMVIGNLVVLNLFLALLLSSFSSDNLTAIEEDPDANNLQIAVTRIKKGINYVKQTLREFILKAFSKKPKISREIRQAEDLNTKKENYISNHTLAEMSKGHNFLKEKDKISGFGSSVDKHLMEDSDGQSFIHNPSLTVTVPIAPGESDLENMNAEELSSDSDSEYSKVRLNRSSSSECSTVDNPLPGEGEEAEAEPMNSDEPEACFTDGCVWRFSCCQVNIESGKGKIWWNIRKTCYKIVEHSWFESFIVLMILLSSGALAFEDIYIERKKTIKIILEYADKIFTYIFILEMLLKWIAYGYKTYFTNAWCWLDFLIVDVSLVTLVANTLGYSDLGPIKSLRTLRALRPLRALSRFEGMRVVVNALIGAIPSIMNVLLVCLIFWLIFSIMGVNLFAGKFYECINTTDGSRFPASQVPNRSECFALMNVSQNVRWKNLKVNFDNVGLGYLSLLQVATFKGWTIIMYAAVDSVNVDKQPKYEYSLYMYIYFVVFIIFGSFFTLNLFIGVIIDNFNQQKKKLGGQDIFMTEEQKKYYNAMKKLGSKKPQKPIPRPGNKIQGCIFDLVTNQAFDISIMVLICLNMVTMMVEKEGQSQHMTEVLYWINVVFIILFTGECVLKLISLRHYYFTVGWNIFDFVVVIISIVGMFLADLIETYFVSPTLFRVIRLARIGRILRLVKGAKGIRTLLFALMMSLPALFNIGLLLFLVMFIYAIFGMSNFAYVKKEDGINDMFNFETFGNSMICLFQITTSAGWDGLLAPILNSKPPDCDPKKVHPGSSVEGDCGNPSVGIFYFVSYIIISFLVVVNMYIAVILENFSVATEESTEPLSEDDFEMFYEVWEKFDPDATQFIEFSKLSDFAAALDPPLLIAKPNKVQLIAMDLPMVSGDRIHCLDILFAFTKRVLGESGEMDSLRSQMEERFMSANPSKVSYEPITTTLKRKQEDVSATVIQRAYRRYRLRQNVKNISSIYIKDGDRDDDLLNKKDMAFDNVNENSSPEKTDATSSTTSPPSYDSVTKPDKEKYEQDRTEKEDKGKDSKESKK
Sequence (Q07699 19-218 partner): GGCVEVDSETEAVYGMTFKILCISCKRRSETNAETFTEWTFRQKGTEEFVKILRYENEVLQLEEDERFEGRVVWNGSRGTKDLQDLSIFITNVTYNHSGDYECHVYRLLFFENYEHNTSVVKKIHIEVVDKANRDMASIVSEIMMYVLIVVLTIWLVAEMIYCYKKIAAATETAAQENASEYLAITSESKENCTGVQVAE
Experiment: Tritiated compound competitive binding to membranes from cells heterologously expressing hNav1.7 and the β1 subunit (LBA)
Conditions: read-out: NaV1.7 (LBA)
Experimental: Example 19 Tritiated Compound Binding to Membranes Isolated from Cells that Heterologously Express hNav1.7 and the β1 Subunit Preparation of membranes containing recombinantly expressed sodium channels: Frozen recombinant cell pellets were thawed on ice and diluted to 4 times the cell pellet weight with ice cold 50 mM Tris HCl, pH 7.4 buffer. […] Protein concentrations were determined by Bradford Assay and the membranes were stored at −80° C. […]

1) O=C(O)[C@H]1CCC[C@@H]1C(=O)c1cc(C2CC2)c(OCC23CC4CC(CC(C4)C2)C3)cc1F [Example 2]	510 nM

Would you be so kind as to report IC50 for each listed record?
1. O=C(O)[C@@H]1CCC[C@H]1C(=O)c1cc(Cl)c(OCC23CC4CC(CC(C4)C2)C3)cc1F [Example 4]
2. O=C(O)C1CCCC1Sc1cc(Cl)c(OCC23CC4CC(CC(C4)C2)C3)cc1F (stereo not shown) [Example 14]
3. C[C@@H]1CC[C@H](C(=O)c2cc(C3CC3)c(OCC34CC5CC(CC(C5)C3)C4)cc2F)[C@H]1C(=O)O [Example 12]
4. O=C(O)[C@@H]1CCC[C@H]1C(=O)c1cc(C2CC2)c(OCC2CCN(Cc3cc(C(F)(F)F)ccc3Cl)CC2)cc1F [Example 13]

Solution:
["440 nM", "2630 nM", "3 nM", "21 nM"]

// for each compound below, give its IC50
1. O=C(O)[C@@H]1CCC[C@H]1C(=O)c1cc(C2CC2)c(OCc2ccccc2)cc1F (relative stereo) [Example 8]
2. O=C(O)[C@@H]1CCC[C@H]1C(=O)c1cc(C2CC2)c(OCC23CC4CC(CC(C4)C2)C3)cc1F [Example 1]

Solution:
["860 nM", "9 nM"]
